All figures here come from the antibiotic and cytotoxicity screens of Wong et al. (2023).

# Test system: HepG2
# TEST_SUMMARY: cytotoxicity call (relative viability < 0.9)
# CONDITION_SUMMARY: 10 µM
Among all 39,000 compounds or so, about 3,300 (8.5%) were called active. This is one part of a sample in which actives are shown more often than they occur.
Your answer must be one of the following: 1 (yes) (active), 0 (no) (inactive)

Asked: Would you mind telling me which call this test gave C[C@H]1CN([C@@H](C)CO)C(=O)c2cc(NC(=O)Nc3ccc4c(c3)OCO4)ccc2O[C@@H]1CN(C)Cc1ccc(C(F)(F)F)cc1 ?
Given back: 0 (no)

Asked: Would you mind telling me which call this test gave C[C@@H]1CN([C@H](C)CO)C(=O)c2cc(NC(=O)Nc3ccc4c(c3)OCO4)ccc2O[C@H]1CN(C)Cc1ccc(C(F)(F)F)cc1 ?
Given back: 0 (no)

Asked: Would you mind telling me which call this test gave C[C@H]1CN([C@@H](C)CO)S(=O)(=O)c2ccc(-c3cccnc3)cc2O[C@@H]1CN(C)C(=O)NC1CCCCC1 ?
Given back: 0 (no)

Asked: Would you mind telling me which call this test gave C[C@@H]1CN([C@H](C)CO)C(=O)c2cc(NC(=O)Nc3ccc4c(c3)OCO4)ccc2O[C@@H]1CN(C)Cc1ccc(C(F)(F)F)cc1 ?
Given back: 1 (yes)
